Values were extracted from paper PMC5610937.

Target: human Fc fusion protein of the extracellular domain of mouse ROR1 (Mus musculus (Mouse)., UniProt Q9Z139)
Sequence (Q9Z139 30-406): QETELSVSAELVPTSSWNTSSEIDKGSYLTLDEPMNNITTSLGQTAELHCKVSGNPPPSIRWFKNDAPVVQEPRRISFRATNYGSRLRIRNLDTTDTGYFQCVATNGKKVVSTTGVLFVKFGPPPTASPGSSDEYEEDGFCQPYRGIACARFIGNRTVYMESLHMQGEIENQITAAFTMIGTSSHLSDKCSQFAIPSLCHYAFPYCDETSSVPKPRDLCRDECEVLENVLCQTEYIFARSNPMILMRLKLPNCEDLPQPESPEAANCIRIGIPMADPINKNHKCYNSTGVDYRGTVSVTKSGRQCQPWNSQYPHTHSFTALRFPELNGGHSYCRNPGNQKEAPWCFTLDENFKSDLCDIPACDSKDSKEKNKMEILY
Assay: ELISA
measure: binding result

chimeric rabbit/human anti-human ROR1 Fab ERR1-306 (Fab, V domains shown) VH: QEQLKESGGGLVQPGGSLKLSCKASGFDLSNYGVSWVRQAPGKGLEWIGYIDPTFDYTYYASWVNGRFSISRENTQNTVSLQINSLTPADTATYFCARWVYGVDDYGDGNWLDLWGQGTLVTISS VL: QFVLTQSPSVSAALGASAKLTCTLSSAHKTYTIDWYQQQQGEAPRYLMELKSDGSYTKGTGVPDRFSGSSSGADRYLIIPSVQADDEADYYCGTDYSGGYVFGGGTQLTVT | binds
